- method.description: protein stability index of a GFP-peptide fusion (GPS, HEK-293T) (PSI 1-6); higher = more stable;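 also: 24-mer peptide tiles fused after GFP, lentivirally expressed, FACS-sorted into six equal bins by GFP/DsRed ratio, decoded by Illumina sequencing, PSI is the read-weighted mean bin number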
- experimental.parameters: treatment: DMSO; c terminus: a fixed tail appended
Measured protein stability index values are reported for all entries that follow.
Write the value as a bare number.

Past entries and their recorded results:
{"construct.sequence": "AAHAAQAHRERNEFPEDPEFEAVV [PI4K2A]", "protein stability index": 5.29}
{"construct.sequence": "SGGGGSSSNFHINVEESVDGQVVS [KRT15]", "protein stability index": 5.26}
{"construct.sequence": "IARVHGTFGAAACSIGFAVRYLNA [POP5]", "protein stability index": 2.22}
{"construct.sequence": "NLNEDDTFLVFSKAELGALPHDFI", "protein stability index": 2.82}

Quick note, protein stability index for HISNQKMPTGPPEDRLSLKFLPSS [DRICH1] landed at 3.21

Quick note, protein stability index for IKTTLRELLVYIVFLVDICLLTYG [PKD2L1] landed at 2.98

Quick note, protein stability index for VSISISGSSRPCLDFLQEVTRQPR [ASB7] landed at 1.93

Quick note, protein stability index for VDEYFRQPVVDTFDIRILMAKSVK [CARM1] landed at 2.47

Quick note, protein stability index for AERLTATGILLHPWLRQDPMPLAP [TRIB3] landed at 2.78

Quick note, protein stability index for ERFHGVGILGFNSAEWFITAVGAI [ACSBG2] landed at 2.75

Quick note, protein stability index for TKKRKLGKNPDVDTSFLPDRDREE [FAM50A] landed at 5.18

Quick note, protein stability index for RRFQQTQYLALPERAELAASLGLT [DLX1] landed at 2.95

Quick note, protein stability index for LLDVKTRLEQEIATYRRLLEGEDA [KRT16] landed at 4.24
